Readings of pKd for the listed binders
test.target: T1, Amyloid-β 42 peptide (UniProt P05067 672-713)
T1 construct: Amyloid-β peptide 1-42 (Aβ42), the cut product of the amyloid precursor protein; numbers count on: the Aβ peptide; For GCI it was immobilised on a polycarboxylate chip from Na acetate pH 4.5; also called Aβ42; Aβ
T1 sequence (P05067 672-713): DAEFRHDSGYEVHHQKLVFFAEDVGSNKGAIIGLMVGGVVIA
protocol.notes: grating-coupled interferometry (GCI); Creoptix WAVE; Aβ42 immobilised on a 4PCH chip (1910±40 pg/mm^2); analytes injected as single-cycle 1:2 dilution series in PBS, 0.005 % Tween 20, 1 % DMSO, 0.2 mg/ml BSA; 25 °C; 100 μl/min; mass transport binding model with bulk correction
condition.details: both partners purified
pKd is a log-scale quantity: -log10 of the concentration expressed in molar.

Recorded results for 2 binders are shown here.
Ac-GKPGKLVFF-NH2 (not fully specified (residue 2); also: porphyrin as Cu(II) complex, designed N-terminal stretch of Ac-GK(N3)PGKLVFF-NH2; the K is the azidolysine that carries the porphyrin; hydrophobic core Aβ16-20 (KLVFF) of amyloid-β; numbers count on: the Aβ peptide; MALDI-TOF (M+H)+ 1937.73; calcd. for C103H118CuN22O13 1936.77; Structure drawn in Scheme 1; source: synthetic peptide (MW-SPPS), clicked in solution to Cu-Ph-Pra-OMe (CuAAC), purified by preparative HPLC) [copper porphyrin-peptide conjugate Cu-Ph-Pep] = 4.36
Ac-GKPGKLVFF-NH2 (not fully specified (residue 2), designed N-terminal stretch of Ac-GK(N3)PGKLVFF-NH2; the K is the azidolysine that carries the porphyrin; hydrophobic core Aβ16-20 (KLVFF) of amyloid-β; numbers count on: the Aβ peptide; MALDI-TOF (M+H)+ 1876.12; calcd. for C103H121N22O13 1875.24; Structure drawn in Scheme 1 and Scheme 3; source: synthetic peptide (MW-SPPS), clicked on resin to Pra-OMe (CuAAC), porphyrin coupled on resin, cleaved …) [unmetalated porphyrin-peptide conjugate Ph-Pep] = 4.22

// below: pKd requested for another binder
Recorded pKd for Ac-GKPGKLVFF-NH2 (not fully specified (residue 2); also: porphyrin as Zn(II) complex, designed N-terminal stretch of Ac-GK(N3)PGKLVFF-NH2; the K is the azidolysine that carries the porphyrin; hydrophobic core Aβ16-20 (KLVFF) of amyloid-β; numbers count on: the Aβ peptide; MALDI-TOF (M+H)+ 1939.43; calcd. for C103H119ZnN22O13 1938.60; Structure drawn in Scheme 1 and Scheme 3; source: synthetic: Ph-Pep metalated with Zn(CH3COO)2, purified by RP-HPLC) [zinc porphyrin-peptide conjugate Zn-Ph-Pep] , please? 4.34
